B1: HDV Ribozyme (parent)
chain: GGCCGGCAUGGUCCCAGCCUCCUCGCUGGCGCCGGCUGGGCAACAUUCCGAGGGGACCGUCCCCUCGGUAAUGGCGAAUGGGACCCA

- Variants of: B1
- assay-explanation: self-cleavage, relative activity (ratio to wild type); higher = more cleavage; co-transcriptional
readout-label: self-cleavage

macromolecule-sequence | readout-label | observed
GGCCUGCAUGGUCCCAGCCUCCUCGCUGGCGCCGGCUGGGCAACAUUCCGAGGGGACCGCCCCCUCGGUAAUGGCGAAUGGGACCCA [G5U U60C] | self-cleavage | 0.604
GGCCGGCAUGGUCCCAGCCUCCUCGCUGGCGCCGGCUGGGCAACAUUCCGAGGGGACCGUCCCCCCGGUACUGGCGAAUGGGACCCA [U65C A71C] | self-cleavage | 0.703
GGCCGGCAUGGUCCCAGCCUCCUCGCUGGCGCCGGCUGGGCAACAUUCCGAGGGGACCGUACCCUCGGUAAUGGCGAAUGCGACCCA [C61A G81C] | self-cleavage | 0.287
GGCCAGCAUGGUCCCAGUCUCCUCGCUGGCGCCGGCUGGGCAACAUUCCGAGGGGACCGUCCCCUCGGUAAUGGCGAAUGGGACCCA [G5A C18U] | self-cleavage | 0
GGCCGGCAUGGUCCCAGUCUCCUCGCUGGCGCCGGCUGGGCAACAUUCCGAGGGGACCGUCCCCACGGUAAUGGCGAAUGGGACCCA [C18U U65A] | self-cleavage | 0.635
GGCCGGCAUGGUCCCAGCCUACUCGCUGGCGCCGGCUGGGCAACAUUCCGAGGGGACCGCCCCCUCGGUAAUGGCGAAUGGGACCCA [C21A U60C] | self-cleavage | 0.0739
GGCCGGCAUGGUCCCAGCCUCCUGGCUGGCGCCGGCUGCGCAACAUUCCGAGGGGACCGUCCCCUCGGUAAUGGCGAAUGGGACCCA [C24G G39C] | self-cleavage | 0.18
GGCCGGCAUGGUCUCAGCCUCCUCGCUGGCGCCGGCUGGGCAACAUUCCGAGGGGACCGUCCCCUCGGUAAUGGCGAAUAGGACCCA [C14U G80A] | self-cleavage | 0.486
